This collection of values is drawn from paper PMC3542538.

- tgt: recombinant Tdp1 (Homo sapiens)
- Sequence (Q9NUW8 whole entry): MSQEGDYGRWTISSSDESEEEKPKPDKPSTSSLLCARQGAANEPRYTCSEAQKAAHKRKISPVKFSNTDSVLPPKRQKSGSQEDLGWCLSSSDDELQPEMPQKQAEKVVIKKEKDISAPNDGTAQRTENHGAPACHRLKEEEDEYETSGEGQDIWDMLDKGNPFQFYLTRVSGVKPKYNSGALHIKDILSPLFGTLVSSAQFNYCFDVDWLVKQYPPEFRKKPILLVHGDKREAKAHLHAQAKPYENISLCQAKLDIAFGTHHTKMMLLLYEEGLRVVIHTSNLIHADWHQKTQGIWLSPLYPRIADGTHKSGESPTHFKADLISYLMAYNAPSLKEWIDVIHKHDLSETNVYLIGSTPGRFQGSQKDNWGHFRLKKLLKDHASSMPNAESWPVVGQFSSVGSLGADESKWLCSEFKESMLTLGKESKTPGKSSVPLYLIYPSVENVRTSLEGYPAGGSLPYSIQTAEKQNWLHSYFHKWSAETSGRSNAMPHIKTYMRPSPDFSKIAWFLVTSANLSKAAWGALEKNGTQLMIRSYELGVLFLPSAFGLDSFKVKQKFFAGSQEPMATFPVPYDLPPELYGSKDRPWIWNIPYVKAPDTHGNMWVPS
- Type: biochemical
measure: Tdp1 inhibitory activity (in words)

Example molecules with recorded Tdp1 inhibitory activity (in words):
CC(C)(C)OC(=O)NCCCn1c2c(c3ccc(NC(=O)CCCC(=O)O)cc3c1=O)C(=O)c1ccccc1-2 [Compound 30]; inactive
COc1ccc2c(c1)-c1c(c3ccc([N+](=O)[O-])cc3c(=O)n1CCCN=[N+]=[N-])C2=O [Compound 50]; very weak or inactive
COC(=O)C(=O)Nc1ccc2c3c(n(C)c(=O)c2c1)-c1ccccc1C3=O [Compound 9]; inactive
COc1ccc2c(c1)-c1c(c3ccc([N+](=O)[O-])cc3c(=O)n1CCCn1ccnc1)C2=O [Compound 52]; very weak or inactive

With those in mind, consider the next molecule.
What value of Tdp1 inhibitory activity (in words) has been recorded for this entry: COc1ccc2c(c1)-c1c(c3ccc([N+](=O)[O-])cc3c(=O)n1CCCBr)C2=O [Compound 49]
very weak or inactive

---

// GI50 collected for all human cancer cell lines successfully tested
measure: GI50 (nM)

Examples with answers:
NCCCn1c2c(c3ccc(NCC(=O)O)cc3c1=O)C(=O)c1ccccc1-2; 870
COc1ccc2c(c1)-c1c(c3ccc([N+](=O)[O-])cc3c(=O)n1CCCn1ccnc1)C2=O; 20

[A] COC(=O)CC(=O)Nc1ccc2c3c(n(CCCN)c(=O)c2c1)-c1ccccc1C3=O
[B] COc1ccc2c(c1)C(=O)c1c-2n(CCCN)c(=O)c2cc(I)ccc12
Between A and B , which one shows the larger GI50 value? Your choice should be expressed through its label.
A

[P] COC(=O)CCCC(=O)Nc1ccc2c3c(n(CCCN)c(=O)c2c1)-c1ccccc1C3=O
[Q] COc1ccc2c(c1)C(=O)c1c-2n(CCCN)c(=O)c2cc(N)ccc12
[R] COC(=O)C(=O)Nc1ccc2c3c(n(CCCN)c(=O)c2c1)-c1ccccc1C3=O
[S] COc1ccc2c(c1)-c1c(c3ccc([N+](=O)[O-])cc3c(=O)n1CCCN)C2=O
Place the items in sequence of falling GI50. Please list each label once, in the requested order.
R, P, S, Q

[a] NCCCn1c2c(c3ccc(N)cc3c1=O)C(=O)c1ccccc1-2
[b] CN(C)CCCn1c2c(c3ccc(C#N)cc3c1=O)C(=O)c1ccccc1-2
Lab note: check whether a or b has the lower measured GI50. Could you answer with the label of the item you picked?
a
